Cited source: the PETadex activity labels (doi:10.1038/s41467-025-61599-z)

Catalogue of Proxy for plastic degradation readings, one per entry.
Experiment: Proxy for plastic degradation [UPLC/UHPLC]
Conditions: pH 9; 40 °C
Supply the numeric figure in µM, leaving out any unit text.

Reference set (2 entries):
protein	quantity unit	quantitative result
unnamed (protein) MLSKRGILGALAGGAVAVGCLTAPAHAAGFEKGPDPTTASVTADRGSYDIAQVDVPKGSGTGFADGTIYYPKSTADGTFGAVAVIPGFLEPKSAIDWYGPRLASQGFVVMTLDTTSVFDTPDSRGGQLLAALDYLTSKSTVKDRIDPNRLAVVGHSMGGGGTLSAAANRPNLKAAVALAPWHVSAPLTSVKTPTMIFGSDNDFIAPDGTFAKPFYDGISNAPEKAYVRLKNAGHMAYVFPDKRIAEYTLSWLKRYVDDDTRYTQFLCPGPTNESTIAAYKSTCPM	µM	14.2
unnamed (protein) MGGGGEDNVFAEPGDFDVVTEPGGRDCTIFRPEQLGDDHAVVIWGNGTGASPNTYAGLLRHYASHGFVVVAANTSNAGTGEDMLNCLDFLEGSQLASSVDFSKVGATGHSQGGGGAIMAGVDPRIATTAPIEGFTLGLGHDRDSHDQQNGPMLILSGSADRLVNPRTNHAPLFDATNVPAFWAIAQGAGHFEPVGDGGDFRGISTAWFLFQLEDDPEATTHFVGDDCFVCEDPGFDVEGVKEID	µM	13.8

Entry unnamed (protein) MNAPLFKLAALTLGLSLASVVLANNPGGGGGTAPDTGTGFPGVSNFSASGSFATTSGSAGASCTVFRPSTLGANNRKHPIIVWGNGTTASPNTYASLLQHWASHGFVVIAANTSNAGTGQEMLGCVDYLTTQNNRSTGTYAGKLDLNRIGAAGHSQGGGGTIMAGQDYRIKVTAPFQPYTIGLGHNSSSQSNQNGPMFLMTGSIDTIASPTLNALPVYTRANVPVFWGELSGASHFEPVGNAGDFRGPATAWFRYHLMDDASAEDTFYGSNCDLCTDRDWDVRRKGIN ; Proxy for plastic degradation = 9.03

Data point: unnamed (protein) MRIRQALVAFCAAIAMVVAGPSYASALDSPYQRGPDPTEASVKAIAGPFAVDQVKATGHTGFGSGTIFYPKDEKGTFGTIAVSPGFISPEGLVHWYAKTLASHGFVVMAMGTFTVADPPPSRGDQLRAALDYMKTKSPVKDKVDPTRLGLSGHSMGGGGTLDAASKMPDLKAAVPLAPWYLTGGPVIPKVKAPTLVVGANIDFVAPMAIFATPFYKALTSPNKALLTLPGDHMTPFLLANPTLTKFAVSWFKRFLDDDTRYDQFLCPNPASYEGTCPLT ; Proxy for plastic degradation = 22.8

// Proxy for plastic degradation lookup, protein = unnamed (protein) MQDNSDGRYRPEGRTFARGAANLFDDRLFEARTYVTGTDVAEFASATIFYPLTLSFDLPNGVVVMSPGYTGTPESYDWWGPMLASVGIITAIIETNTPEDNLEQRKNALIAGIELIKRENANSASPINNKVDESQIAIMGHSLGGGASLRAAEELEGDIKAVIPLTPYCCELGQSFEGDLKGVSTPTLIIAAADDTIAPPETHSRLLYDEINSSTNKVYLEFAEGAHGLPTNQGSEFQTQGTYVYAFLKANFTNDSKYSDFIGGDGEDSFSSYETN , result: 15.5
